Source of measurements: ChEMBL document CHEMBL1156597

Tested on: DU-145
method: Cytotoxicity against human DU145 cells after 48 hrs by SRB assay
Format: functional, cell-based
experimental parameters: Homo sapiens, DU-145, 48 h; read-out: GI50
Some compounds, each annotated with its measured GI50.
measure name: GI50 (nM)

entry smiles: C/C=C1\NC(=O)[C@H](Cc2ccccc2)NC(=O)[C@@H](C(C)C)NC(=O)[C@@H]([C@H](C)CC)NC(=O)[C@H](NC(=O)[C@H](NC(=O)[C@H](CCCN)NC(=O)[C@H]2CCCN2C(=O)[C@H](NC(=O)[C@@H](NC(=O)[C@@H](NC(=O)[C@H](NC(=O)CCCCC(C)(F)F)C(C)C)[C@@H](C)O)C(C)C)C(C)C)[C@H](C)CC)[C@H](C)OC(=O)[C@H](C(C)C)NC1=O
tgt: DU-145
experimental value: 4520
--
entry smiles: C/C=C1\NC(=O)[C@H](Cc2ccccc2)NC(=O)[C@@H](C(C)C)NC(=O)[C@@H]([C@H](C)CC)NC(=O)[C@H](NC(=O)[C@H](NC(=O)[C@H](CCCNC(=O)CCOCCOCCNC(=O)OCC2c3ccccc3-c3ccccc32)NC(=O)[C@H]2CCCN2C(=O)[C@H](NC(=O)[C@@H](NC(=O)[C@@H](NC(=O)[C@H](NC(=O)CCCC(C)C)C(C)C)[C@@H](C)O)C(C)C)C(C)C)[C@H](C)CC)[C@H](C)OC(=O)[C@H](C(C)C)NC1=O
tgt: DU-145
experimental value: 16.4
--
entry smiles: C/C=C1\NC(=O)[C@H](Cc2ccccc2)NC(=O)[C@@H](C(C)C)NC(=O)[C@@H]([C@H](C)CC)NC(=O)[C@H](NC(=O)[C@H](NC(=O)[C@H](CCCN)NC(=O)[C@H]2CCCN2C(=O)[C@H](NC(=O)[C@H](C)NC(=O)[C@@H](NC(=O)[C@H](NC(=O)CCCC(C)C)C(C)C)[C@@H](C)O)C(C)C)[C@H](C)CC)[C@H](C)OC(=O)[C@H](C(C)C)NC1=O
tgt: DU-145
experimental value: 3900
--
entry smiles: C/C=C1\NC(=O)[C@H](Cc2ccc3ccccc3c2)NC(=O)[C@@H](C(C)C)NC(=O)[C@@H]([C@H](C)CC)NC(=O)[C@H](NC(=O)[C@H](NC(=O)[C@H](CCCN)NC(=O)[C@H]2CCCN2C(=O)[C@H](NC(=O)[C@@H](NC(=O)[C@@H](NC(=O)[C@H](NC(=O)CCCC(C)C)C(C)C)[C@@H](C)O)C(C)C)C(C)C)[C@H](C)CC)[C@H](C)OC(=O)[C@H](C(C)C)NC1=O
tgt: DU-145
experimental value: 50.9
--
entry smiles: C/C=C1\NC(=O)[C@H](Cc2ccc([N+](=O)[O-])cc2)NC(=O)[C@@H](C(C)C)NC(=O)[C@@H]([C@H](C)CC)NC(=O)[C@H](NC(=O)[C@H](NC(=O)[C@H](CCCN)NC(=O)[C@H]2CCCN2C(=O)[C@H](NC(=O)[C@@H](NC(=O)[C@@H](NC(=O)[C@H](NC(=O)CC[C@@H](C)CC)C(C)C)[C@@H](C)O)C(C)C)C(C)C)[C@H](C)CC)[C@H](C)OC(=O)[C@H](C(C)C)NC1=O
tgt: DU-145
experimental value: 261
--
entry smiles: C/C=C1\NC(=O)[C@H](Cc2ccccc2)NC(=O)[C@@H](C(C)C)NC(=O)[C@@H]([C@H](C)CC)NC(=O)[C@H](NC(=O)[C@H](NC(=O)[C@H](CCCN)NC(=O)[C@H]2CCCN2C(=O)[C@H](NC(=O)[C@@H](NC(=O)[C@@H](NC(=O)[C@@H](CCCN)NC(=O)CCCC(C)C)[C@@H](C)O)C(C)C)C(C)C)[C@H](C)CC)[C@H](C)OC(=O)[C@H](C(C)C)NC1=O
tgt: DU-145
experimental value: 1160
--
entry smiles: C/C=C1\NC(=O)[C@H](Cc2ccccc2)NC(=O)[C@@H](C(C)C)NC(=O)[C@@H]([C@H](C)CC)NC(=O)[C@H](NC(=O)[C@H](NC(=O)[C@H](CCCN)NC(=O)[C@H]2CCCN2C(=O)[C@H](NC(=O)[C@@H](NC(=O)[C@H](Cc2ccccc2)NC(=O)[C@H](NC(=O)CCCC(C)C)C(C)C)C(C)C)C(C)C)[C@H](C)CC)[C@H](C)OC(=O)[C@H](C(C)C)NC1=O
tgt: DU-145
experimental value: 191
--
entry smiles: C/C=C1\NC(=O)[C@H](Cc2ccc(Cl)c(Cl)c2)NC(=O)[C@@H](C(C)C)NC(=O)[C@@H]([C@H](C)CC)NC(=O)[C@H](NC(=O)[C@H](NC(=O)[C@H](CCCN)NC(=O)[C@H]2CCCN2C(=O)[C@H](NC(=O)[C@@H](NC(=O)[C@@H](NC(=O)[C@H](NC(=O)CC[C@@H](C)CC)C(C)C)[C@@H](C)O)C(C)C)C(C)C)[C@H](C)CC)[C@H](C)OC(=O)[C@H](C(C)C)NC1=O
tgt: DU-145
experimental value: 266
--
entry smiles: C/C=C1\NC(=O)[C@H](Cc2ccccc2)NC(=O)[C@@H](C(C)C)NC(=O)[C@@H]([C@H](C)CC)NC(=O)[C@H](NC(=O)[C@H](NC(=O)[C@H](CCCN)NC(=O)[C@H]2CCCN2C(=O)[C@H](NC(=O)[C@H](NC(=O)[C@@H](NC(=O)[C@H](NC(=O)CCCC(C)C)C(C)C)[C@@H](C)O)C(C)C)C(C)C)[C@H](C)CC)[C@H](C)OC(=O)[C@H](C(C)C)NC1=O
tgt: DU-145
experimental value: 3130
--
entry smiles: C/C=C1\NC(=O)[C@H](Cc2ccccc2)NC(=O)[C@@H](C(C)C)NC(=O)[C@@H](C(C)C)NC(=O)[C@H](NC(=O)[C@H](NC(=O)[C@H](CCCN)NC(=O)[C@H]2CCCN2C(=O)[C@H](NC(=O)[C@@H](NC(=O)[C@@H](NC(=O)[C@H](NC(=O)CCCC(C)C)C(C)C)[C@@H](C)O)C(C)C)C(C)C)C(C)C)[C@H](C)OC(=O)[C@H](C(C)C)NC1=O
tgt: DU-145
experimental value: 1360
